# assay-notes: In vivo biodistribution in mice
# Set-up: species or system normal CD-1 male mice
# conditions: iv, 30 min (0.5 hr) post injection
Reported Biodistribution: Spleen maps to class as: lower: < 0.2 % dose/g; middle: ≥ 0.2 % dose/g and < 0.8 % dose/g; upper: ≥ 0.8 % dose/g

- compound: "[18F-].[Na+] [[^18F]NaF, reference compound]"
  class-assignment: "upper"
- compound: "O=C([O-])CN(CCN(CC(=O)[O-])Cc1cc(CCC(=O)NC(P(=O)(O)O)P(=O)(O)O)ccc1[O-])Cc1cc(CCC(=O)NCC(=O)O)ccc1[O-].[68Ga+3] [[^68Ga]1c]"
  class-assignment: "upper"
- compound: "O=C([O-])CN(CCN(CC(=O)[O-])Cc1cc(CCC(=O)NC(P(=O)(O)O)P(=O)(O)O)ccc1[O-])Cc1cc(CCC(=O)NCCCCCC(=O)NCCCC[C@H](NC(=O)N[C@@H](CCC(=O)O)C(=O)O)C(=O)O)ccc1[O-].[68Ga+3] [[^68Ga]1g]"
  class-assignment: "upper"
- compound: "O=C([O-])CN(CCN(CC(=O)[O-])Cc1cc(CCC(=O)NC(P(=O)(O)O)P(=O)(O)O)ccc1[O-])Cc1cc(CCC(=O)NC2C(O)OC(CO)C(O)C2O)ccc1[O-].[68Ga+3] (stereo not shown) [[^68Ga]1b]"
  class-assignment: "middle"
- compound: "C[C@H](NC(=O)CCc1ccc([O-])c(CN(CCN(CC(=O)[O-])Cc2cc(CCC(=O)NC(P(=O)(O)O)P(=O)(O)O)ccc2[O-])CC(=O)[O-])c1)C(=O)O.[68Ga+3] [[^68Ga]1d]"
  class-assignment: "middle"
- compound: "O=C([O-])CN(CCN(CC(=O)[O-])Cc1cc(CCC(=O)NC(P(=O)(O)O)P(=O)(O)O)ccc1[O-])Cc1cc(CCC(=O)NCCNC(=O)CN2CCN(CC(=O)O)CCN(CC(=O)O)CCN(CC(=O)O)CC2)ccc1[O-].[68Ga+3] [[^68Ga]1h]"
  class-assignment: "lower"
- compound: "O=C([O-])CN(CCN(CC(=O)[O-])Cc1cc(CCC(=O)N[C@@H](CCC(=O)O)C(=O)O)ccc1[O-])Cc1cc(CCC(=O)NC(P(=O)(O)O)P(=O)(O)O)ccc1[O-].[68Ga+3] [[^68Ga]1f]"
  class-assignment: "middle"
- compound: "O=C([O-])CN(CCN(CC(=O)[O-])Cc1cc(CCC(=O)NC(P(=O)(O)O)P(=O)(O)O)ccc1[O-])Cc1cc(CCC(=O)O)ccc1[O-].[68Ga+3] [[^68Ga]1a]"
  class-assignment: "lower"
- compound: "O=C([O-])CN1CCN(CC(=O)[O-])CCN(CC(=O)NCCNC(=O)CCc2ccc(O)c(CN(CCN(CC(=O)O)Cc3cc(CCC(=O)NC(P(=O)(O)O)P(=O)(O)O)ccc3O)CC(=O)O)c2)CCN(CC(=O)[O-])CC1.[177Lu+3] [[^177Lu]1h]"
  class-assignment: "lower"
- compound: "O=C(O)CN1CCN(CC(=O)O)CCN(CC(=O)NC(P(=O)(O)O)P(=O)(O)O)CCN(CC(=O)O)CC1.[68Ga] [[^68Ga]BPAMD, reference compound]"
  class-assignment: "middle"
